Data provenance is paper doi:10.1101/2024.08.19.608619.

perc_recovered listing for selected molecules.
# measurement protocol: Protein binding
# Type: in vitro ADME
# settings: In vitro fetal calf serum protein binding
# Text: Supplement media-1.zip/Protein_Binding.csv, table | column: fu; perc_bound; perc_free; perc_recovered
readout name: perc_recovered (%)

{"query smiles": "CC(C)[C@H](Nc1ncnc2[nH]ccc12)c1ccc2c(c1)S(=O)(=O)CCC2", "reported value": 94.23}
{"query smiles": "C[C@H](C(=O)O)[C@@H](NC(=O)c1ncnc2[nH]ccc12)c1ccc(Br)cc1", "reported value": 106.3}
{"query smiles": "CC(C)[C@H](Nc1ncnc2[nH]c(-c3cnn(C)c3C#N)cc12)c1ccc2c(n1)OCCO2", "reported value": 89.85}
{"query smiles": "CNCc1cc(-c2cc3c(N[C@@H](c4ccc5c(c4)S(=O)(=O)CCC5)C(C)C)ncnc3[nH]2)co1", "reported value": 78.6}
{"query smiles": "Cn1ncc(-c2cc3c(N[C@@H](c4ccc5c(n4)OCCO5)C(C)(C)C)ncnc3[nH]2)c1C#N", "reported value": 99.13}
{"query smiles": "CC(C)[C@@H](Nc1ncnc2[nH]c(-c3cnn(C)c3C#N)cc12)c1ccc2c(n1)OCCO2", "reported value": 96.46}
{"query smiles": "COc1ccc([C@H](Cc2nnn[nH]2)NC(=O)c2ncnc3[nH]ccc23)cc1", "reported value": 101.6}

---

# measurement protocol: Hepatic microsomal stability, HLM
# Type: in vitro ADME, human
# settings: In vitro human liver microsomal stability
perc_remaining listing for selected molecules.
readout name: perc_remaining (%)

{"molecule": "CC(C)(C)[C@H](Nc1ncnc2[nH]c(-c3cnn(CC(N)=O)c3)cc12)c1ccc2c(c1)OCCO2 (racemic) [ASAP-0008581]", "readout name": "perc_remaining", "reported value": 11.0}
{"molecule": "CC(C)[C@@H](Nc1ncnc2[nH]c(-c3cnn(CC(=O)N(C)C)c3)cc12)c1ccc2c(c1)OCCO2", "readout name": "perc_remaining", "reported value": 9.0}
{"molecule": "CC(C)[C@H](Nc1ncnc2[nH]c(-c3cnn(CC(N)=O)c3)cc12)c1ccc2c(c1)NC(=O)CO2 (racemic)", "readout name": "perc_remaining", "reported value": 73.0}
{"molecule": "CC(C)[C@H](Nc1ncnc2[nH]c(-c3cnn(CC(=O)N(C)C)c3)cc12)c1ccc2c(c1)OCCO2 (single isomer, unassigned) [ASAP-0013837]", "readout name": "perc_remaining", "reported value": 18.0}
{"molecule": "CNC(=O)c1c[nH]c2ncnc(N[C@H](c3ccc4c(c3)S(=O)(=O)CCC4)C(C)C)c12 (single isomer, unassigned) [ASAP-0011153]", "readout name": "perc_remaining", "reported value": 1.0}
{"molecule": "CC(C)(C)[C@H](Nc1ncnc2[nH]c(-c3cnn(CC(N)=O)c3)cc12)c1ccc2c(c1)OCCO2 (single isomer, unassigned) [ASAP-0012332]", "readout name": "perc_remaining", "reported value": 18.0}

---

# measurement protocol: Hepatic microsomal stability, MLM
# Format: in vitro ADME
# settings: In vitro mouse liver microsomal stability
Returns one of T or F; T when clint is >= 100 µL/min/mg.

{"compound": "O=C(Nc1ccccc1)Nc1ccc(C(=O)NC2c3cccc(O)c3CC2C(=O)O)cc1 (centres unmarked)", "class": "F"}
{"compound": "CC(C)[C@@H](Nc1ncnc2[nH]c(-c3cnn(CC(N)=O)c3)cc12)c1ccc2c(c1)S(=O)(=O)CCC2", "class": "F"}
{"compound": "CC(C)[C@H](Nc1ncnc2[nH]c(-c3cnn(C)c3C#N)cc12)c1ccc2c(c1)NC(=O)CO2 (racemic) [ASAP-0008576]", "class": "T"}
{"compound": "CC(C)[C@H](Nc1ncnc2[nH]c(-c3cnn(C)c3C#N)cc12)c1ccc2c(n1)NC(=O)CO2 (single isomer, unassigned)", "class": "T"}
{"compound": "CC(C)[C@H](Nc1ncnc2[nH]ccc12)c1ccc2c(c1)NC(=O)CO2", "class": "F"}
{"compound": "CCNC(=O)c1cc2c(N[C@H](c3ccc4c(c3)S(=O)(=O)CCC4)C(C)C)ncnc2[nH]1 [ASAP-0012325]", "class": "F"}
{"compound": "COCCNC(=O)c1c[nH]c2ncnc(N[C@H](c3ccc4c(c3)S(=O)(=O)CCC4)C(C)C)c12 (racemic)", "class": "T"}
{"compound": "CC(C)[C@@H](Nc1ncnc2[nH]c(-c3cnn(C)c3)cc12)c1ccc2c(c1)S(=O)(=O)CCC2 [ASAP-0008678]", "class": "T"}
{"compound": "CC(C)[C@H](Nc1ncnc2[nH]c(-c3cnn(C)c3C#N)cc12)c1ccc2c(c1)NC(=O)CO2 (single isomer, unassigned) [ASAP-0013255]", "class": "F"}
{"compound": "CC(C)[C@H](Nc1ncnc2[nH]c(C(=O)N[C@@H]3CCN(C)C3)cc12)c1ccc2c(c1)S(=O)(=O)CCC2", "class": "F"}
{"compound": "O=C(Nc1cccc2c(C(=O)N[C@H]3c4ccccc4C[C@H]3C(=O)O)c[nH]c12)NC1CC1 (racemic)", "class": "F"}
{"compound": "CC(C)[C@H](Nc1ncnc2[nH]c(-c3cnn(CC(N)=O)c3)cc12)c1ccc2c(n1)OCCO2", "class": "F"}
{"compound": "CC(C)[C@H](Nc1ncnc2[nH]c(-c3cnn(CC(N)=O)c3)cc12)c1ccc2c(c1)S(=O)(=O)CCC2 (racemic) [ASAP-0008679]", "class": "F"}
{"compound": "CNC(=O)c1cccc(-c2cc3c(N[C@@H](c4ccc5c(c4)S(=O)(=O)CCC5)C(C)C)ncnc3[nH]2)c1", "class": "T"}
{"compound": "CNC(=O)c1c[nH]c2ncnc(N[C@H](c3ccc4c(c3)S(=O)(=O)CCC4)C(C)C)c12 (racemic) [ASAP-0008641]", "class": "T"}
{"compound": "CCNC(=O)c1cc2c(N[C@@H](c3ccc4c(c3)S(=O)(=O)CCO4)C(C)C)ncnc2[nH]1 (racemic)", "class": "F"}
{"compound": "CC(C)[C@H](Nc1ncnc2[nH]c(-c3cnn(CC(=O)N(C)C)c3)cc12)c1ccc2c(c1)S(=O)(=O)CCC2", "class": "T"}
{"compound": "CNC(=O)c1cc2c(N[C@@H](c3ccc4c(c3)S(=O)(=O)CCC4)C(C)C)ncnc2[nH]1 (single isomer, unassigned) [ASAP-0012346]", "class": "F"}
{"compound": "CC(C)[C@@H](Nc1ncnc2[nH]c(-c3cnn(C)c3C#N)cc12)c1ccc2c(n1)NC(=O)CO2 (single isomer, unassigned) [ASAP-0011180]", "class": "T"}
{"compound": "CNC(=O)c1c[nH]c2ncnc(N[C@@H](c3ccc4c(c3)OCCO4)C(C)C)c12", "class": "F"}
{"compound": "CC(C)[C@H](Nc1ncnc2[nH]c(-c3cnn(CC(N)=O)c3)cc12)c1ccc2c(c1)OCCO2 (single isomer, unassigned) [ASAP-0008450]", "class": "F"}
{"compound": "CNC(=O)c1cccc(-c2cc3c(N[C@H](c4ccc5c(c4)S(=O)(=O)CCC5)C(C)C)ncnc3[nH]2)c1 (single isomer, unassigned)", "class": "T"}
{"compound": "Cn1ncc(-c2cc3c(N[C@@H](c4ccc5c(c4)OCCO5)C(C)(C)C)ncnc3[nH]2)c1C#N (racemic)", "class": "T"}
{"compound": "CC(C)[C@@H](Nc1ncnc2[nH]c(-c3cnn(C)c3C#N)cc12)c1ccc2c(c1)OCCO2 [ASAP-0011033]", "class": "T"}
{"compound": "CC(C)(C)[C@H](Nc1ncnc2[nH]c(-c3cnn(CC(N)=O)c3)cc12)c1ccc2c(c1)OCCO2 (single isomer, unassigned) [ASAP-0012332]", "class": "F"}
{"compound": "CC(C)[C@@H](Nc1ncnc2[nH]ccc12)c1ccc2c(c1)S(=O)(=O)CCC2 (single isomer, unassigned)", "class": "F"}

---

clint listing for selected molecules.
# measurement protocol: Hepatic microsomal stability, HLM
# Format: in vitro ADME, human
# settings: In vitro human liver microsomal stability
readout name: clint (µL/min/mg)

{"molecule": "CC(C)[C@H](Nc1ncnc2[nH]c(-c3cnn(C)c3C#N)cc12)c1ccc2c(c1)NC(=O)CO2 (single isomer, unassigned) [ASAP-0013255]", "reported value": 115.0}
{"molecule": "CC(C)(C)[C@H](Nc1ncnc2[nH]c(-c3cnn(CC(N)=O)c3)cc12)c1ccc2c(n1)OCCO2 (single isomer, unassigned) [ASAP-0011159]", "reported value": 27.0}
{"molecule": "CNC(=O)c1c[nH]c2ncnc(N[C@H](c3ccc4c(c3)S(=O)(=O)CCC4)C(C)C)c12 (racemic) [ASAP-0008641]", "reported value": 131.0}

---

# measurement protocol: Hepatic microsomal stability, MLM
# Assay type: in vitro ADME
# settings: In vitro mouse liver microsomal stability
clint listing for selected compounds.

{"compound": "CC(C)[C@H](Nc1ncnc2[nH]cc(C(N)=O)c12)c1ccc2c(c1)OCCO2 (racemic)", "clint": "142.0 µL/min/mg"}
{"compound": "CC(C)[C@@H](Nc1ncnc2[nH]c(-c3cnn(C)c3C#N)cc12)c1ccc2c(c1)S(=O)(=O)CCC2 (single isomer, unassigned) [ASAP-0011147]", "clint": "709.0 µL/min/mg"}
{"compound": "COc1ccc2c(c1)CCN(c1ncnc3[nH]ccc13)[C@H]2C(C)C (racemic)", "clint": "321.0 µL/min/mg"}
{"compound": "CC(C)[C@H](Nc1ncnc2[nH]cc(C(=O)NC3CC3)c12)c1ccc2c(c1)S(=O)(=O)CCC2 (racemic) [ASAP-0008647]", "clint": "234.0 µL/min/mg"}
{"compound": "CC(C)[C@@H](Nc1ncnc2[nH]cc(C(=O)NC3CC3)c12)c1ccc2c(c1)S(=O)(=O)CCC2", "clint": "1740.0 µL/min/mg"}
{"compound": "CNC(=O)c1c[nH]c2ncnc(N[C@@H](c3ccc4c(c3)S(=O)(=O)CCC4)C(C)C)c12", "clint": "113.0 µL/min/mg"}
{"compound": "Cc1nn(C)cc1-c1cc2c(N[C@H](c3ccc4c(c3)S(=O)(=O)CCC4)C(C)C)ncnc2[nH]1 (single isomer, unassigned)", "clint": "390.0 µL/min/mg"}
{"compound": "CNCc1cc(-c2cc3c(N[C@@H](c4ccc5c(c4)S(=O)(=O)NCC5)C(C)C)ncnc3[nH]2)co1", "clint": "42.0 µL/min/mg"}
{"compound": "CC(C)[C@H](Nc1ncnc2[nH]c(-c3cnn(CC(=O)N(C)C)c3)cc12)c1ccc2c(c1)OCCO2 (single isomer, unassigned) [ASAP-0013833]", "clint": "35.0 µL/min/mg"}
{"compound": "CC(C)(C)[C@H](Nc1ncnc2[nH]c(-c3cnn(CC(N)=O)c3)cc12)c1ccc2c(n1)OCCO2 (racemic) [ASAP-0008648]", "clint": "31.0 µL/min/mg"}
{"compound": "CC(C)[C@H](Nc1ncnc2[nH]cc(C(=O)NC3CC3)c12)c1ccc2c(c1)S(=O)(=O)CCC2 (single isomer, unassigned) [ASAP-0011247]", "clint": "42.0 µL/min/mg"}
{"compound": "CC(C)[C@H](Nc1ncnc2[nH]c(-c3cnn(CC(N)=O)c3)cc12)c1ccc2c(c1)NC(=O)CO2 (racemic)", "clint": "11.0 µL/min/mg"}
{"compound": "CC(C)[C@H](Nc1ncnc2[nH]c(-c3cnn(C)c3C#N)cc12)c1ccc2c(c1)NC(=O)CO2 (single isomer, unassigned) [ASAP-0013256]", "clint": "147.0 µL/min/mg"}
